Give relative binding ratio for every item shown.
# system-tested: T1, Soluble CDCP1 extracellular domain (CDCP1-ECD) (SEQ ID NO:30) fused to Streptavidin Binding Protein (SBP) (human, UniProt Q9H5V8 30-663)
# T1 construct: also called SBP-CDCP1-ECD
# T1 sequence: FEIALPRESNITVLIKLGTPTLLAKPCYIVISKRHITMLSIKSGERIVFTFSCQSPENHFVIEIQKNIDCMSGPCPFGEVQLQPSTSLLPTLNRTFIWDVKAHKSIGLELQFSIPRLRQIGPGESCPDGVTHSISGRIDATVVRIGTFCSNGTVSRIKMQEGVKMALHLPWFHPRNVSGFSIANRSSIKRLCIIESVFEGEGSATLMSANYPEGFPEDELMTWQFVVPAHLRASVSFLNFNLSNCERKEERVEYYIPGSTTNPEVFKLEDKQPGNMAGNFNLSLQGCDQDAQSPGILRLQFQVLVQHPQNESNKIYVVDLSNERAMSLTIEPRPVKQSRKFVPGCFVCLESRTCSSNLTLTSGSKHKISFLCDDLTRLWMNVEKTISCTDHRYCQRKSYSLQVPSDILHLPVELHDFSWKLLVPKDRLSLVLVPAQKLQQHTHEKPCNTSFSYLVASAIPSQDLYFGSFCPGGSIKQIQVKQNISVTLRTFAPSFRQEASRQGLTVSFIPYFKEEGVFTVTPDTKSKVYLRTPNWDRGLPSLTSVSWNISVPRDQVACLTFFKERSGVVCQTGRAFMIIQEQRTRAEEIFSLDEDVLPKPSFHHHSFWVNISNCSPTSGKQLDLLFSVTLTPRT
# assay-summary: ELISA on captured SBP-CDCP1-ECD, ratio relative to chimeric CUB4 (chHC4)
One number for each entry.

Some binders with known relative binding ratio results, for comparison:
>  <binder>
hHC4-H / hLC4-L (antibody, V domains shown, also called Humanized CUB4 Antibody No. 58) VH: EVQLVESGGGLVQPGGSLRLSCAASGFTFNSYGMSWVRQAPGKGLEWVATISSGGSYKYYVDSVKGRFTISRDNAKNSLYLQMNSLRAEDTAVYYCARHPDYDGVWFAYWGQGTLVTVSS VL: EIVLTQSPATLSLSPGERATMSCRASSSVFYLHWYQQKPGQAPRLWIYDTSKLASGIPARFSGSGSGTDFTLTISSLEPEDFAVYYCQQWNSNPPTFGGGTKVEIK

>  <reported-measurement>
0.44

$$$$
>  <binder>
hHC4-K / hLC4-M (antibody, V domains shown) VH: EVQLVESGGGLVKPGGSLRLSCAASGFTFNSYGMSWVRQAPGKGLEWVSSISSGGSYIYYADSVKGRFTISRDNAKNSLYLQMNSLRAEDTAVYYCARHPDYDGVWFAYWGQGTLVTVSS VL: EIVLTQSPATLSLSPGERATMSCGASSSVFYLHWYQQKPGLAPRLWIYDTSKLASGIPDRFSGSGSGTDFTLTISRLEPEDFAVYYCQQWNSNPPTFGGGTKVEIK

>  <reported-measurement>
0.04

$$$$
>  <binder>
hHC4-K / hLC4-L (antibody, V domains shown) VH: EVQLVESGGGLVKPGGSLRLSCAASGFTFNSYGMSWVRQAPGKGLEWVSSISSGGSYIYYADSVKGRFTISRDNAKNSLYLQMNSLRAEDTAVYYCARHPDYDGVWFAYWGQGTLVTVSS VL: EIVLTQSPATLSLSPGERATMSCRASSSVFYLHWYQQKPGQAPRLWIYDTSKLASGIPARFSGSGSGTDFTLTISSLEPEDFAVYYCQQWNSNPPTFGGGTKVEIK

>  <reported-measurement>
0.02

$$$$
>  <binder>
hHC4-d / hLC4-J (antibody, V domains shown) VH: EVQLLESGGGLVQPGGSLRLSCAASGFTFNSYGMSWVRQAPGKGLEWVSTISSGGSYTYYPDSVKGRFTISRDNSKNTLYLQMNSLRAEDTAVYYCAKHPDYDGVWFAYWGQGTLVTVSS VL: EIVMTQSPATLSLSPGERATMSCRASSSVFYLHWYQQKPGQAPRLWIYDTSKLASGIPARFSGSGSGTDFTLTISSLQPEDFAVYYCQQWNSNPPTFGGGTKVEIK

>  <reported-measurement>
0.38

$$$$

Turning now to a further binder:
q: Name the reported relative binding ratio value associated with the binder hHC4-c / hLC4-a (antibody, V domains shown) VH: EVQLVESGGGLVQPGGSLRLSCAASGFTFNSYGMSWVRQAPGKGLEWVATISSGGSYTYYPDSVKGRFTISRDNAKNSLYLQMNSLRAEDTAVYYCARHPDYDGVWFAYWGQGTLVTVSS VL: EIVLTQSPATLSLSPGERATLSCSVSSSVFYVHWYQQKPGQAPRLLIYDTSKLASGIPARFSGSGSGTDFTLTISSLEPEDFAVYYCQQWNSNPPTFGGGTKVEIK
a: 0.34
